TARGET_OR_TEST_SYSTEM: rSmGST (Spirometra mansoni, UniProt I1SZ68)
Sequence (I1SZ68 entry or part of it): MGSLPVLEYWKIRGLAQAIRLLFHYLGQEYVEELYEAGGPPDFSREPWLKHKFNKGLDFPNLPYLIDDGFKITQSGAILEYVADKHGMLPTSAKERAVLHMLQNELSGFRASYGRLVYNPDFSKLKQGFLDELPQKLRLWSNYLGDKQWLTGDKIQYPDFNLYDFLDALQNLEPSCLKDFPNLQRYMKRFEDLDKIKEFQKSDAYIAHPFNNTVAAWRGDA
EXPERIMENT_SUMMARY: biochemical
Format: biochemical
STUDY_CONDITIONS: 4 mM GSH, CDNB varied 0.20 to 2.0 mM; secondary plot of 1/v intercept vs inhibitor concentration
MEASURED_PARAMETER: pKi
One number for each entry, as −log10 of the molar value.

See these solved cases before continuing.
INSERT INTO measurements (molecule, target_or_test_system, measured_parameter, value) VALUES
  ('Nc1c(S(=O)(=O)O)cc(Nc2ccc(Nc3nc(Cl)nc(Nc4ccccc4S(=O)(=O)O)n3)c(S(=O)(=O)O)c2)c2c1C(=O)c1ccccc1C2=O', 'rSmGST (Spirometra mansoni, UniProt I1SZ68)', 'pKi', 4.70),
  ('O=C([O-])c1c(Cl)c(Cl)c(Cl)c(Cl)c1-c1c2cc(I)c(=O)c(I)c-2oc2c(I)c([O-])c(I)cc12.[Na+].[Na+]', 'rSmGST (Spirometra mansoni, UniProt I1SZ68)', 'pKi', 4.24),
  ('[Cl][Sn]([c]1ccccc1)([c]1ccccc1)[c]1ccccc1 [Tripheniltin chloride]', 'rSmGST (Spirometra mansoni, UniProt I1SZ68)', 'pKi', 4.93);

So what's the measured pKi for this one? O=C1OC(c2ccc(O)c(S(=O)(=O)O)c2)(c2ccc(O)c(S(=O)(=O)O)c2)c2c(Br)c(Br)c(Br)c(Br)c21 3.91

* * *

What follows is a collection of IC50 values obtained with UniProt I1SZ68.
Numbers only, in µM.

INSERT INTO results (molecule, value) VALUES
  ('[Cl][Sn]([c]1ccccc1)([c]1ccccc1)[c]1ccccc1 [Tripheniltin chloride]', 12.1),
  ('Nc1c(S(=O)(=O)O)cc(Nc2ccc(Nc3nc(Cl)nc(Nc4ccccc4S(=O)(=O)O)n3)c(S(=O)(=O)O)c2)c2c1C(=O)c1ccccc1C2=O [Cibacron Blue]', 11.7),
  ('O=C1OC(c2ccc(O)c(S(=O)(=O)O)c2)(c2ccc(O)c(S(=O)(=O)O)c2)c2c(Br)c(Br)c(Br)c(Br)c21 [Bromosulfophtalein]', 290);

We next turn to a different molecule, shown below.
So what's the measured IC50 for this one? O=C([O-])c1c(Cl)c(Cl)c(Cl)c(Cl)c1-c1c2cc(I)c(=O)c(I)c-2oc2c(I)c([O-])c(I)cc12.[Na+].[Na+] [Rose Bengal] 34

* * *

TARGET_OR_TEST_SYSTEM: UniProtKB I1SZ68
EXPERIMENT_SUMMARY: biochemical
Assay type: biochemical
STUDY_CONDITIONS: Supplementary Figure S4
Method: The effect of temperature on rSmGST was carried out by keeping the enzyme at different temperatures (15, 20, 25, 30, 35, 40, 45, 50, and 55°C) for 10 min, and then enzyme activity was assayed immediately. […] Activity of enzyme was determined in 100 mM potassium phosphate buffer (pH 6.5) with 1 mM l-chloro-2,4-dinitrobenzene (CDNB) and 4 mM GSH as substrates by following the change in absorbance at 340 nm (ε 1/4 9.6 mM^−1. cm^−1) for 1 min at 30°C as previously described ([28]). […]
MEASURED_PARAMETER: maximal slope at IC50 of fractional velocity vs log inhibitor concentration

See these solved cases before continuing.
INSERT INTO measurements (compound, value) VALUES
  ('O=C([O-])c1c(Cl)c(Cl)c(Cl)c(Cl)c1-c1c2cc(I)c(=O)c(I)c-2oc2c(I)c([O-])c(I)cc12.[Na+].[Na+]', '−0.63'),
  ('O=C1OC(c2ccc(O)c(S(=O)(=O)O)c2)(c2ccc(O)c(S(=O)(=O)O)c2)c2c(Br)c(Br)c(Br)c(Br)c21', '−0.27'),
  ('Nc1c(S(=O)(=O)O)cc(Nc2ccc(Nc3nc(Cl)nc(Nc4ccccc4S(=O)(=O)O)n3)c(S(=O)(=O)O)c2)c2c1C(=O)c1ccccc1C2=O', '−0.51');

We next turn to a different compound, shown below.
So what's the measured maximal slope at IC50 of fractional velocity vs log inhibitor concentration for this one? [Cl][Sn]([c]1ccccc1)([c]1ccccc1)[c]1ccccc1 [Tripheniltin chloride] −0.59

* * *

TARGET_OR_TEST_SYSTEM: rSmGST (Spirometra mansoni)
EXPERIMENT_SUMMARY: biochemical
Type: biochemical
STUDY_CONDITIONS: CDNB as the variable substrate; double-reciprocal plots
MEASURED_PARAMETER: inhibition pattern

INSERT INTO assay_data (molecule, value) VALUES
  ('[Cl][Sn]([c]1ccccc1)([c]1ccccc1)[c]1ccccc1 [Tripheniltin chloride]', 'non-competitive'),
  ('O=C1OC(c2ccc(O)c(S(=O)(=O)O)c2)(c2ccc(O)c(S(=O)(=O)O)c2)c2c(Br)c(Br)c(Br)c(Br)c21 [Bromosulfophtalein]', 'non-competitive'),
  ('Nc1c(S(=O)(=O)O)cc(Nc2ccc(Nc3nc(Cl)nc(Nc4ccccc4S(=O)(=O)O)n3)c(S(=O)(=O)O)c2)c2c1C(=O)c1ccccc1C2=O [Cibacron Blue]', 'uncompetitive'),
  ('O=C([O-])c1c(Cl)c(Cl)c(Cl)c(Cl)c1-c1c2cc(I)c(=O)c(I)c-2oc2c(I)c([O-])c(I)cc12.[Na+].[Na+] [Rose Bengal]', 'uncompetitive');
